// provenance: patent US7312188B2

# SYSTEM UNDER TEST: recombinant human BACE-1 (rhBACE-1) (Homo sapiens, UniProt P56817)
# Construct: expressed as only an extracellular region (amino acid 1-460 residues) of recombinant human β-secretase; His tag (C); purchased R&D systems (Minneapolis, Minn.); host or cells: murine myeloma cell line NS0
# Sequence (P56817 22-460 limits assumed): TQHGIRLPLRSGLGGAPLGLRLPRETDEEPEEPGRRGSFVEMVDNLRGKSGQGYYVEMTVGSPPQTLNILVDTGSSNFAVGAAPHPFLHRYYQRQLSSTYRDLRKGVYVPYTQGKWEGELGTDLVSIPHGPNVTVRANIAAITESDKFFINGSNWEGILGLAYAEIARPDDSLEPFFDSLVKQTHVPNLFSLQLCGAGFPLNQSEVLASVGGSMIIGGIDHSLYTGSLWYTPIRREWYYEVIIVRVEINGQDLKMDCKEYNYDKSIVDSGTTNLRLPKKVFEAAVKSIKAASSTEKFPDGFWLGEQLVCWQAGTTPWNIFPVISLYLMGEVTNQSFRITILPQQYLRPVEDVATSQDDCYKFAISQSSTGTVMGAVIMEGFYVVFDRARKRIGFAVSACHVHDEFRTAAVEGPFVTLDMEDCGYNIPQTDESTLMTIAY
# METHOD NOTES: BACE1 inhibitory activity, reverse phase HPLC quantitation of N-terminal fragment of fluorogenic substrate
# Assay type: biochemical
# CONDITION SUMMARY: 1 μL of inhibitor solution in DMSO (100 μM) in 50 μL reaction; MES buffer pH 5.0; 37° C., 60 minutes
Numbered stars: 1 amine (or outer) side, 2 acyl side, 3 side chain; on linkers, the order of the positions; unused ones are H or OH. Square brackets hold non-standard residues; d marks the D form. Peptide text beside a SMILES is read from it. * marks the point of attachment. ξ: configuration not given here. β3hPhe(2R-OH) = O=C([C@H](O)[C@H](Cc1ccccc1)N[*:1])[*:2]; X2 = O=C([C@H](O)[C@H](CSc1ccccc1)N[*:1])[*:2]; Ala(4-thiazolyl) = N[C@@H](Cc1cscn1)C(=O)O; Benzoyl(4-COOH) = O=C(O)c1ccc(C(=O)*)cc1; Oxalyl = O=C(C(=O)[*:2])[*:1]; Tle = CC(C)(C)[C@H](N)C(=O)O; 3Abz = Nc1cccc(C(=O)O)c1; 4Abz = Nc1ccc(C(=O)O)cc1; Dap = NC[C@H](N)C(=O)O; ξPip = O=C(O)C1CCCCN1

# COMPOUND, SYSTEM UNDER TEST, inhibition at 2 µM
data = [
    ("CC(C)C[C@H](NC(=O)[C@@H](NC(=O)[C@@H](N)CCC(=O)O)C(C)C)C(=O)N[C@@H](Cc1ccccc1)[C@@H](O)C(=O)N[C@@H](CC(=O)O)C(=O)N[C@@H](C)C(=O)Nc1cccc(C(=O)O)c1 [Example 92] (H-EVL[β3hPhe(2R-OH)]DA[3Abz]-OH)", "recombinant human BACE-1 (rhBACE-1) (Homo sapiens, UniProt P56817)", "65.4%"),
    ("CC(C)C[C@H](NC(=O)[C@@H](NC(=O)[C@@H](N)CNC(=O)C(=O)O)C(C)C)C(=O)N[C@@H](Cc1ccccc1)[C@@H](O)C(=O)N[C@@H](CC(=O)O)C(=O)Nc1cccc(C(=O)O)c1 [Example 70] (H-[Dap](Oxalyl)VL[β3hPhe(2R-OH)]D[3Abz]-OH)", "recombinant human BACE-1 (rhBACE-1) (Homo sapiens, UniProt P56817)", "98.3%"),
    ("CCOC(=O)C(=O)NC[C@H](N)C(=O)N[C@H](C(=O)N[C@@H](CC(C)C)C(=O)N[C@@H](Cc1ccccc1)[C@@H](O)C(=O)Nc1cc(C(=O)OC)cc(C(=O)OC)c1)C(C)C", "recombinant human BACE-1 (rhBACE-1) (Homo sapiens, UniProt P56817)", "54.4%"),
    ("CC(C)[C@H](NC(=O)[C@@H](N)CCC(=O)O)C(=O)N[C@@H](Cc1cscn1)C(=O)N[C@@H](Cc1ccccc1)[C@@H](O)C(=O)N[C@@H](CC(=O)O)C(=O)N[C@@H](C)C(=O)N[C@@H](CCC(=O)O)C(=O)N[C@@H](Cc1ccccc1)C(=O)O [Example 99] (H-EV[Ala(4-thiazolyl)][β3hPhe(2R-OH)]DAEF-OH)", "recombinant human BACE-1 (rhBACE-1) (Homo sapiens, UniProt P56817)", "58%"),
    ("CSC[C@H](NC(=O)[C@@H](NC(=O)[C@@H](N)CCC(=O)O)C(C)C)C(=O)N[C@@H](Cc1ccccc1)[C@@H](O)C(=O)Nc1cccc(C(=O)O)c1", "recombinant human BACE-1 (rhBACE-1) (Homo sapiens, UniProt P56817)", "74.1%"),
    ("CC(C)C[C@H](NC(=O)[C@@H](NC(=O)[C@@H](N)CNC(=O)c1ccc(C(=O)O)cc1)C(C)C)C(=O)N[C@@H](Cc1ccccc1)[C@@H](O)C(=O)N[C@@H](CC(=O)O)C(=O)N[C@@H](C)C(=O)N[C@@H](CCC(=O)O)C(=O)O [Example 81] (H-[Dap](Benzoyl(4-COOH))VL[β3hPhe(2R-OH)]DAE-OH)", "recombinant human BACE-1 (rhBACE-1) (Homo sapiens, UniProt P56817)", "82.9%"),
    ("CC(C)C[C@H](NC(=O)[C@@H](NC(=O)[C@@H](N)CCC(=O)O)C(C)C)C(=O)N[C@@H](Cc1ccccc1)[C@@H](O)C(=O)NCc1ccc(Cl)c(Cl)c1", "recombinant human BACE-1 (rhBACE-1) (Homo sapiens, UniProt P56817)", "71.5%"),
    ("CC(C)C[C@H](NC(=O)[C@@H](NC(=O)[C@@H](N)CCC(=O)O)C(C)C)C(=O)N[C@@H](CSc1ccccc1)[C@@H](O)C(=O)N[C@@H](CC(=O)O)C(=O)N[C@@H](C)C(=O)N[C@@H](CCC(=O)O)C(=O)N[C@@H](Cc1ccccc1)C(=O)O [Example 82] (H-EVL[X2]DAEF-OH)", "recombinant human BACE-1 (rhBACE-1) (Homo sapiens, UniProt P56817)", "81.8%"),
    ("CC[C@H](C)[C@H](NC(=O)[C@@H](NC(=O)[C@@H](N)CCC(=O)O)C(C)C)C(=O)N[C@@H](Cc1ccccc1)[C@@H](O)C(=O)Nc1cccc(C(=O)O)c1", "recombinant human BACE-1 (rhBACE-1) (Homo sapiens, UniProt P56817)", "65.8%"),
    ("CCCC[C@H](NC(=O)[C@@H](NC(=O)[C@@H](N)CCC(=O)O)C(C)C)C(=O)N[C@@H](Cc1ccccc1)[C@@H](O)C(=O)Nc1cccc(C(=O)O)c1", "recombinant human BACE-1 (rhBACE-1) (Homo sapiens, UniProt P56817)", "67.5%"),
    ("CC(C)[C@H](NC(=O)[C@@H](N)CCC(=O)O)C(=O)N[C@H](C(=O)N[C@@H](Cc1ccccc1)[C@@H](O)C(=O)Nc1cccc(C(=O)O)c1)c1ccccc1", "recombinant human BACE-1 (rhBACE-1) (Homo sapiens, UniProt P56817)", "64.1%"),
    ("CC(C)C[C@H](NC(=O)[C@@H](NC(=O)[C@@H](N)CNC(=O)c1ccc(O)cc1)C(C)C)C(=O)N[C@@H](Cc1ccccc1)[C@@H](O)C(=O)Nc1cccc(C(=O)O)c1", "recombinant human BACE-1 (rhBACE-1) (Homo sapiens, UniProt P56817)", "69.9%"),
    ("CC(C)C[C@H](NC(=O)[C@@H](NC(=O)[C@@H](N)CCC(=O)O)C(C)C)C(=O)N[C@@H](Cc1ccccc1)[C@@H](O)C(=O)N[C@@H](CC(=O)O)C(=O)N1CCCCC1C(=O)O (stereo partly drawn) [Example 88] (H-EVL[β3hPhe(2R-OH)]D[ξPip]-OH)", "recombinant human BACE-1 (rhBACE-1) (Homo sapiens, UniProt P56817)", "70.4%"),
    ("CC(C)C[C@H](NC(=O)[C@@H](NC(=O)[C@@H](N)CCC(=O)O)C(C)C)C(=O)N[C@@H](Cc1ccccc1)[C@@H](O)C(=O)N[C@@H](CC(=O)O)C(=O)N[C@H](C(=O)N[C@@H](CCC(=O)O)C(=O)N[C@@H](Cc1ccccc1)C(=O)O)C(C)(C)C [Example 86] (H-EVL[β3hPhe(2R-OH)]D[Tle]EF-OH)", "recombinant human BACE-1 (rhBACE-1) (Homo sapiens, UniProt P56817)", "75%"),
    ("CC(C)C[C@H](NC(=O)[C@@H](NC(=O)[C@@H](N)CNC(=O)C(=O)O)C(C)C)C(=O)N[C@@H](Cc1ccccc1)[C@@H](O)C(=O)N[C@@H](CC(=O)O)C(=O)Nc1ccc(C(=O)O)cc1 [Example 71] (H-[Dap](Oxalyl)VL[β3hPhe(2R-OH)]D[4Abz]-OH)", "recombinant human BACE-1 (rhBACE-1) (Homo sapiens, UniProt P56817)", "97.9%"),
    ("CC(C)C[C@H](NC(=O)[C@@H](NC(=O)[C@@H](N)CCC(=O)O)C(C)C)C(=O)N[C@@H](Cc1ccccc1)[C@@H](O)C(=O)N[C@H](C(=O)N[C@@H](C)C(=O)N[C@@H](CCC(=O)O)C(=O)N[C@@H](Cc1ccccc1)C(=O)O)C(C)C [Example 96] (H-EVL[β3hPhe(2R-OH)]VAEF-OH)", "recombinant human BACE-1 (rhBACE-1) (Homo sapiens, UniProt P56817)", "59.2%"),
]
